Biological target: T1, cynomolgus SIRPβ1v3 (XP_005568593) extracellular domain + His-tag (cynomolgus monkey)
T1 construct: SPR analyte; also called Cyno SIRPβ1v3 XP_005568593; cynoSIRPβ1v3; not shown: His-tag
T1 chain: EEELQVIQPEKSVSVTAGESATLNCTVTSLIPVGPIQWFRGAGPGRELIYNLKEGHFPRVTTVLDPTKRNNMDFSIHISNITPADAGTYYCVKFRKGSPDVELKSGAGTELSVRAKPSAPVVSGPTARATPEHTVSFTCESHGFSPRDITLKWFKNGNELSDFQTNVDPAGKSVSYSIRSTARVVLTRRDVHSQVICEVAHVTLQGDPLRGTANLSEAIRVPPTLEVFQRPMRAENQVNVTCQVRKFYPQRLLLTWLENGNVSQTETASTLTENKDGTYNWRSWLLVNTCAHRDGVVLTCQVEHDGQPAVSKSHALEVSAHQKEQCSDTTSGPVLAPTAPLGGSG
Assay: SPR, antibody captured, ECD-His analyte
Experimental: The binding affinity of anti-SIRPα antibodies to the various SIRPα analytes is determined by surface plasmon resonance (SPR) using a ProteOn XPR36 (Bio-Rad). The running buffer for this experiment and all dilutions (except where stated) are done in 1×HBS-EP+. […] The sensorchip is deactivated with 1M ethanolamine HCl for 420 sec at a flowrate of 10 μl/min. The analyte is injected over the captured antibody for 300 sec at a flowrate of 30 μl/min. The dissociation is done for 600 sec. […]
quantity kind: Kd (nM)

{"binder": "Antibody E21 (antibody, human IgG1, kappa, L234A L235A, V domains shown) VH: QVQLQESGPGLVRPSETLSLTCTVSGGSIRNYYWSWIRQPPGKGLEWIGFIYYTGRTFYNPSLKSRVTISLDMSKNQFSLKMTSVTAADTAVYYCARVRAYSGIGLDGTDVWGQGTTVTVSS VL: DIVMTQSPLSLPVTPGEPASISCKSSQSLLYSNAYNYLDWYLQRPGQSPQLLIYLGSNRASGVPDRFSGSGSGTDFTLKISRVEAEDVGVYYCMQALQTPLTFGGGTKVEIKR", "quantity kind": "Kd", "test result": 56.5}
{"binder": "Antibody E15 (antibody, human IgG1, kappa, L234A L235A, V domains shown) VH: QVQLQESGPGLVRPSETLSLTCTVSGGSIRNYYWSWIRQPPGKGLEWIGFIYYTGRTFYNPSLKSRVTISLDMSINQFSLKMTSVTAADTAVYYCARVRAYSGIGLDGTDVWGQGTTVTVSS VL: DIVMTQSPLSLPVTPGEPASISCKSSQSLLYSNGYAYLDWYLQRPGQSPQLLIYLGSNRASGVPDRFSGSGSGTDFTLKISRVEAEDVGVYYCMQALQTPLTFGGGTKVEIKR", "quantity kind": "Kd", "test result": 25.8}
{"binder": "Antibody E19 (antibody, human IgG1, kappa, L234A L235A, V domains shown) VH: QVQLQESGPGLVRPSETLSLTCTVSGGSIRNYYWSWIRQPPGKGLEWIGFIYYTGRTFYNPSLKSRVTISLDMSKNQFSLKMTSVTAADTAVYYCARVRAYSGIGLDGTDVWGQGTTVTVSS VL: DIVMTQSPLSLPVTPGEPASISCKSSQSLLYSNGYAYLDWYLQRPGQSPQLLIYQGSNRASGVPDRFSGSGSGTDFTLKISRVEAEDVGVFYCMQALQTPLTFGGGTKVEIKR", "quantity kind": "Kd", "test result": 25}
